System: MET
Experiment: MET biochemical kinase assay
Set-up: species or system human; concentration or dose not given beside the values
Hi! Could you tag entries with Met Kinase % Inhibition below 40% as criterion met, and those at or above as criterion not met? Much appreciated.

[[record]]
smiles_repr = "CN(C)c1ccc(C=C2C(=O)Nc3ccc(I)cc32)cc1"
answer_label = "criterion met"

[[record]]
smiles_repr = "O=C1Nc2ccc(S(=O)(=O)N3CCOCC3)cc2C1=Cc1ccc(O)c(Br)c1"
answer_label = "criterion not met"


Take the molecule O=C1Nc2c(Br)cc(Br)cc2C1=Cc1cc2c(cc1Cl)OCO2 and say whether its Met Kinase % Inhibition is less than 40%. criterion met

Same again, this time with O=C1Nc2ccc(I)cc2C1=Cc1ncc[nH]1 criterion not met

Same again, this time with COc1c(C)cc(C=C2C(=O)Nc3ccc(I)cc32)cc1C criterion not met

Same again, this time with CNS(=O)(=O)c1ccc2c(c1)C(=Cc1cn(C)cc1C)C(=O)N2 criterion not met

Same again, this time with CNS(=O)(=O)c1ccc2c(c1)C(=Cc1ccc(F)cc1Cl)C(=O)N2 criterion met

Same again, this time with Cc1c(Br)ccc2c1C(=Cc1ccccc1Sc1ccc(Cl)cc1)C(=O)N2 criterion met

Same again, this time with CCOC(=O)c1c(C)[nH]c(C=C2C(=O)Nc3ccc(S(=O)(=O)N4CCOCC4)cc32)c1C criterion not met

Same again, this time with CC(C)(C)c1cc(C=C2C(=O)Nc3ccc(S(=O)(=O)Nc4ccc(C(F)(F)F)cc4)cc32)cc(Br)c1OCc1ccccc1 criterion met

Same again, this time with CNS(=O)(=O)c1ccc2c(c1)C(=Cc1cc([N+](=O)[O-])c(O)c(C(C)(C)C)c1)C(=O)N2 criterion met

Same again, this time with CC(C)(C)c1cc(C=C2C(=O)Nc3ccc(CCCl)cc32)cc([N+](=O)[O-])c1O criterion not met

----------
Catalogue of compounds with associated PDGF Kinase %Inhibition
Molecular target: PDGF-R (Homo sapiens)
Sequence (P09619 33-1106, species assumed): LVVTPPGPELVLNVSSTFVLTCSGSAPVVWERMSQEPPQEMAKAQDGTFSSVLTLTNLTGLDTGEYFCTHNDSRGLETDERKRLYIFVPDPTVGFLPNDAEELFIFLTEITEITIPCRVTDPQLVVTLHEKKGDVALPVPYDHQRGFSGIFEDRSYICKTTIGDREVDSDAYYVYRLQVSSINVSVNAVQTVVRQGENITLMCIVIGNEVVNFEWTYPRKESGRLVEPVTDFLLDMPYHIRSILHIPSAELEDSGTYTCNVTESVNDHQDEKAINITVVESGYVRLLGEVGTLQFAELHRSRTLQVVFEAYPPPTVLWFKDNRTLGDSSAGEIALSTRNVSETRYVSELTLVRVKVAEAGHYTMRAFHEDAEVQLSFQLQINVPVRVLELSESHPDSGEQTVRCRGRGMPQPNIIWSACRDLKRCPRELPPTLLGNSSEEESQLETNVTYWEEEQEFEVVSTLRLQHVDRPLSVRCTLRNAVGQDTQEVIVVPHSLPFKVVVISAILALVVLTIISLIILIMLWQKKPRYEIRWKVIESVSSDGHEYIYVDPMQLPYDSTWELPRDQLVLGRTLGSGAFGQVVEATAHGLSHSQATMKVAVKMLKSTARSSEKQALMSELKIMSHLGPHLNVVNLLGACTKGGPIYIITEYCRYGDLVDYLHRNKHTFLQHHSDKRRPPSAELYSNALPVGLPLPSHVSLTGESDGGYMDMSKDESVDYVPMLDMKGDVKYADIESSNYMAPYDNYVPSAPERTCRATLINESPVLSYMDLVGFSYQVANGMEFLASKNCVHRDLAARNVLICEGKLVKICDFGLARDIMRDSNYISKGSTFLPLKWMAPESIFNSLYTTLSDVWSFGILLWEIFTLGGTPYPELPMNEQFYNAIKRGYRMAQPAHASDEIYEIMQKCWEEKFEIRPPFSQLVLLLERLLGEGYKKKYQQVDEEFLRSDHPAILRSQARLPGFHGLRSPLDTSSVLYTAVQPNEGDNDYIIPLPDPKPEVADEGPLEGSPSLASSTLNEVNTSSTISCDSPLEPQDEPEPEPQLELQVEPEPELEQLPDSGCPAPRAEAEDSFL
Test: PDGF-R ELISA
Type: cell-based

// solved cases for PDGF Kinase %Inhibition follow
[[record]]
smiles_repr = "CCOc1cccc(C=C2C(=O)Nc3ccc(S(=O)(=O)Nc4ccc(C(F)(F)F)cc4)cc32)c1O"
value_type = "PDGF Kinase %Inhibition"
result = "50.1%"

[[record]]
smiles_repr = "COc1cccc(OC)c1C=C1C(=O)Nc2ccc(I)cc21"
value_type = "PDGF Kinase %Inhibition"
result = "10.3%"

[[record]]
smiles_repr = "CCCCN(CCCC)c1ccc(C=C2C(=O)Nc3c(Br)cc(Br)cc32)cc1"
value_type = "PDGF Kinase %Inhibition"
result = "15.2%"

[[record]]
smiles_repr = "CC(C)(C)c1cc(C=C2C(=O)Nc3ccc(CCCl)cc32)cc(Br)c1OCc1ccccc1"
value_type = "PDGF Kinase %Inhibition"
result = "37.6%"

[[record]]
smiles_repr = "Cc1cc(C=C2C(=O)Nc3ccc(S(=O)(=O)Nc4ccc(C(F)(F)F)cc4)cc32)cc(C)c1OCc1ccccc1"
value_type = "PDGF Kinase %Inhibition"
result = "29.3%"

[[record]]
smiles_repr = "CNS(=O)(=O)c1ccc2c(c1)C(=Cc1cc(Cl)c(O)c(C(C)(C)C)c1)C(=O)N2"
value_type = "PDGF Kinase %Inhibition"
result = "41.5%"

[[record]]
smiles_repr = "COc1ccc(C=C2C(=O)Nc3c(Br)cc(Br)cc32)c(O)c1"
value_type = "PDGF Kinase %Inhibition"
result = "42.9%"


For the next question, use this compound.
API: value(readout= PDGF Kinase %Inhibition, system= PDGF-R (Homo sapiens), query= O=C1Nc2ccc(CCCl)cc2C1=Cc1cccc(F)c1O ) 0.2%

----------
Target: FLK-1 receptor (Mus musculus, UniProt P35918)
Construct: expressed in transfected cells; host or cells: NIH3T3 C7#3
Sequence (P35918 20-1345): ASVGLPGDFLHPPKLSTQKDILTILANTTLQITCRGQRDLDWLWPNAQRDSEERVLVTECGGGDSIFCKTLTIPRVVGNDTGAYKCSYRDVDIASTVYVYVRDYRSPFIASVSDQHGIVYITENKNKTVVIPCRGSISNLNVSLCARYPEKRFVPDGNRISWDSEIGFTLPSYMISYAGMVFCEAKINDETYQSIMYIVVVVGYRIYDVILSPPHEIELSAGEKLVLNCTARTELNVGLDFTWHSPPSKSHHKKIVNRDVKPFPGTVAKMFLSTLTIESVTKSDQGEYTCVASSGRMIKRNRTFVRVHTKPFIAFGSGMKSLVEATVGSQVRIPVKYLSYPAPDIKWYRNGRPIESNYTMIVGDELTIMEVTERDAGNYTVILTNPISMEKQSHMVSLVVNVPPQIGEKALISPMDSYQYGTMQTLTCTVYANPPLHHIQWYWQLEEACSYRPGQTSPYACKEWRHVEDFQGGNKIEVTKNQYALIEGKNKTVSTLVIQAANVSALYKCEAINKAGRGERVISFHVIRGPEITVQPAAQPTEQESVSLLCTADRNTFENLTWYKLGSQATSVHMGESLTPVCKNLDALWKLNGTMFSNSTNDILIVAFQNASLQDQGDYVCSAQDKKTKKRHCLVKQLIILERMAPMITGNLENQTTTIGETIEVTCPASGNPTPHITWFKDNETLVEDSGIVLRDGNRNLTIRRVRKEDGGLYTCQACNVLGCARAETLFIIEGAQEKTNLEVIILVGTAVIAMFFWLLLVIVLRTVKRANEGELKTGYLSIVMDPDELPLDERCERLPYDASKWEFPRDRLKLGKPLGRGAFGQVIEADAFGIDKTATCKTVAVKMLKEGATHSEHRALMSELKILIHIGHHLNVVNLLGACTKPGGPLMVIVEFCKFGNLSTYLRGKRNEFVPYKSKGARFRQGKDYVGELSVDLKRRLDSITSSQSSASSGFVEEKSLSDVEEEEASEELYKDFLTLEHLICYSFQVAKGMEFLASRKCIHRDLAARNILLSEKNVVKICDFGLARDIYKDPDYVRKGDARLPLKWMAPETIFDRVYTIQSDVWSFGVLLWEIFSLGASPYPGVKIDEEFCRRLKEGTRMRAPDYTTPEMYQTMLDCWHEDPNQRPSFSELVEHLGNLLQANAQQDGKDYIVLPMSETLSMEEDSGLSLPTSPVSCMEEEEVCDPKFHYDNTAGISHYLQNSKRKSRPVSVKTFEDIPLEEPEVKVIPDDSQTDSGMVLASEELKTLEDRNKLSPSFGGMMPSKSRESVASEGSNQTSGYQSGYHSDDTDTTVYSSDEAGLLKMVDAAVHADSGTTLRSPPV
Experiment: FLK-1 ELISA (kinase activity of the FLK-1 receptor in FLK-1/NIH3T3 cells, VEGF stimulated)
Type: cell-based
value.type: Fik Kinase %Inhibition (%)
Field format: number, assumed %, no unit text.

// solved cases for Fik Kinase %Inhibition follow
[[record]]
molecule = "COc1c(Br)cc(C=C2C(=O)Nc3ccc(S(=O)(=O)Nc4ccc(C(F)(F)F)cc4)cc32)cc1C(C)(C)C"
value_type = "Fik Kinase %Inhibition"
units_label = "%"
numeric_result = 21.3

[[record]]
molecule = "CNS(=O)(=O)c1ccc2c(c1)C(=Cc1c(OC)ccc3ccccc13)C(=O)N2"
value_type = "Fik Kinase %Inhibition"
units_label = "%"
numeric_result = 12.2

[[record]]
molecule = "Cc1cc(C=C2C(=O)Nc3ccc(Br)c(C)c32)oc1C"
value_type = "Fik Kinase %Inhibition"
units_label = "%"
numeric_result = -8.0

[[record]]
molecule = "O=C1Nc2ccc(S(=O)(=O)Nc3ccc(C(F)(F)F)cc3)cc2C1=Cc1ccccc1Br"
value_type = "Fik Kinase %Inhibition"
units_label = "%"
numeric_result = 17.4

[[record]]
molecule = "COc1ccc(Br)c(C=C2C(=O)Nc3ccc(CCCl)cc32)c1O"
value_type = "Fik Kinase %Inhibition"
units_label = "%"
numeric_result = -6.9

[[record]]
molecule = "Cc1[nH]c(C=C2C(=O)Nc3ccc(S(=O)(=O)Nc4ccc(C(F)(F)F)cc4)cc32)c(Br)c1Br"
value_type = "Fik Kinase %Inhibition"
units_label = "%"
numeric_result = 8.9

[[record]]
molecule = "N#Cc1ccc(C=C2C(=O)Nc3c(Br)cc(Br)cc32)cc1"
value_type = "Fik Kinase %Inhibition"
units_label = "%"
numeric_result = -16.8

[[record]]
molecule = "COC1CC(C=C2C(=O)Nc3ccc(Br)c(C)c32)C(OC)O1 (stereo not drawn)"
value_type = "Fik Kinase %Inhibition"
units_label = "%"
numeric_result = 15.4


For the next question, use this molecule.
API: value(readout= Fik Kinase %Inhibition, system= FLK-1 receptor (Mus musculus, UniProt P35918), query= CNS(=O)(=O)c1ccc2c(c1)C(=Cc1cc([N+](=O)[O-])ccc1O)C(=O)N2 ) 2.9

----------
Catalogue of compounds with associated Fik Kinase %Inhibition
Target: FLK-1 receptor (Mus musculus, UniProt P35918)
Construct: expressed in transfected cells; host or cells: NIH3T3 C7#3
Test: FLK-1 ELISA (kinase activity of the FLK-1 receptor in FLK-1/NIH3T3 cells, VEGF stimulated)
Format: cell-based
Procedure: An enzyme linked immunosorbent assay (ELISA) was conducted to measure the catalytic activity of the FLK-1 receptor and more specifically, the inhibition or activation of indolinone compounds on the catalytic activity of the FLK-1 receptor. Specifically, the following assay was conducted to measure catalytic activity of the FLK-1 receptor in FLK-1/NIH3T3 cells. […]
Field format: number, assumed %, no unit text.

// solved cases for Fik Kinase %Inhibition follow
[[record]]
compound = "COc1cc(OC)c(C=C2C(=O)Nc3ccc(I)cc32)c(OC)c1 [10719/B06]"
units_label = "%"
numeric_result = 21.3

[[record]]
compound = "O=C1Nc2c(Br)cc(Br)cc2C1=Cc1ccc(O)c(O)c1 [10719/A03]"
units_label = "%"
numeric_result = 3.9

[[record]]
compound = "COc1ccc(C=C2C(=O)Nc3ccc(CCCl)cc32)cc1OC [10720/G04]"
units_label = "%"
numeric_result = 2.4

[[record]]
compound = "Cc1cc(C=C2C(=O)Nc3ccc(S(=O)(=O)Nc4ccc(C(F)(F)F)cc4)cc32)sc1C [10721/E04]"
units_label = "%"
numeric_result = 16.0

[[record]]
compound = "CN(C)c1ccc(C=C2C(=O)Nc3ccc(S(=O)(=O)Nc4ccc(C(F)(F)F)cc4)cc32)c2ccccc12 [10724/E02]"
units_label = "%"
numeric_result = 17.7

[[record]]
compound = "COc1ccc(C=C2C(=O)Nc3ccc(S(=O)(=O)Nc4ccc(C(F)(F)F)cc4)cc32)c(O)c1 [10723/E09]"
units_label = "%"
numeric_result = 7.9

[[record]]
compound = "COc1c(I)cc(C=C2C(=O)Nc3ccc(Br)c(C)c32)cc1C(C)(C)C [10732/C11]"
units_label = "%"
numeric_result = 18.2


For the next question, use this compound.
Which Fik Kinase %Inhibition is listed for O=C1Nc2ccc(S(=O)(=O)Nc3ccc(C(F)(F)F)cc3)cc2C1=Cc1cc2ccccc2o1 [10724/E07] ? -3.6

----------
Target: EGFR (Homo sapiens, UniProt P00533)
Construct: Add 7 ug A431 cell lysate per well (EGFR source); endogenous in cells; host or cells: A431
Sequence (P00533 25-1210): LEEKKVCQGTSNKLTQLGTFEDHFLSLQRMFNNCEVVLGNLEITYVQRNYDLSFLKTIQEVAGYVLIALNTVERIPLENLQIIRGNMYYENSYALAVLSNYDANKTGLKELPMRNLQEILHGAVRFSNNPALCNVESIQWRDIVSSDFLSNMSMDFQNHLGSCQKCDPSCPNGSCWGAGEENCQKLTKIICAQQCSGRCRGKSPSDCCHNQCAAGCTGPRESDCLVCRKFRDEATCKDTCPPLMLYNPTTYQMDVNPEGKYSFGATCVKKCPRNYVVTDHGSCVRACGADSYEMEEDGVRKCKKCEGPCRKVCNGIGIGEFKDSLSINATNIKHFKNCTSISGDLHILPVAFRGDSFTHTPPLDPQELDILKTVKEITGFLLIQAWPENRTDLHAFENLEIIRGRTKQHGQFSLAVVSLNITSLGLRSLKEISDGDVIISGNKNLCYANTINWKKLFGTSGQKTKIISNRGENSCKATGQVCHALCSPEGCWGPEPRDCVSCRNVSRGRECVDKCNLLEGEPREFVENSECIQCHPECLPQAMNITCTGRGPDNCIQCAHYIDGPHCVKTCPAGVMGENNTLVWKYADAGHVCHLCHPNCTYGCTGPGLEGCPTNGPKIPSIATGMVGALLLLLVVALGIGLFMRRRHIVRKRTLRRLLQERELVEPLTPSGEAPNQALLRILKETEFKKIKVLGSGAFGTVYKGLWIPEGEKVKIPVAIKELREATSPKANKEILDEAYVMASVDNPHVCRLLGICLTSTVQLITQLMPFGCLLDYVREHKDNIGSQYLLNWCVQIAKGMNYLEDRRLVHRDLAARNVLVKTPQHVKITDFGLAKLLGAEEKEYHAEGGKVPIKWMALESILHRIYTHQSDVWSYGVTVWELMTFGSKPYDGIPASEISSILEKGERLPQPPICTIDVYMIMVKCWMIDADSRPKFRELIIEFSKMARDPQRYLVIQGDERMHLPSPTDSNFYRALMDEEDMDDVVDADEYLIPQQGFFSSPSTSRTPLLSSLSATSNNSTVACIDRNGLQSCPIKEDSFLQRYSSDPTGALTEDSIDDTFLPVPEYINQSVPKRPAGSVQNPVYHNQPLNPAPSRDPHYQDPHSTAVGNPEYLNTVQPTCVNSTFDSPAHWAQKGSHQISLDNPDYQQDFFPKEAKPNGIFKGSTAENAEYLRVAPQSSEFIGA
Experiment: EGFR ELISA assay (in vitro kinase activity, EGFR captured from A431 cell lysate)
Format: biochemical
Parameters: concentration or dose not given beside the values
Classification field: enter yes (1) for Biochem EGFR %Inhibition values not below 10%, no (0) for values below it.

Would you please look over these solved cases?
[[record]]
compound = "Cc1cc(C=C2C(=O)Nc3ccc(S(=O)(=O)Nc4ccc(C(F)(F)F)cc4)cc32)oc1C"
target_or_test_system = "EGFR (Homo sapiens, UniProt P00533)"
answer_label = "yes (1)"

[[record]]
compound = "C=C(C)C1CC=C(C=C2C(=O)Nc3ccc(S(=O)(=O)Nc4ccc(C(F)(F)F)cc4)cc32)CC1 (centres unmarked)"
target_or_test_system = "EGFR (Homo sapiens, UniProt P00533)"
answer_label = "yes (1)"

[[record]]
compound = "O=C1Nc2ccc(S(=O)(=O)Nc3ccc(C(F)(F)F)cc3)cc2C1=Cc1ccc(-c2ccccc2Cl)o1"
target_or_test_system = "EGFR (Homo sapiens, UniProt P00533)"
answer_label = "yes (1)"

[[record]]
compound = "COc1cccc(C=C2C(=O)Nc3ccc(S(=O)(=O)Nc4ccc(C(F)(F)F)cc4)cc32)c1OC"
target_or_test_system = "EGFR (Homo sapiens, UniProt P00533)"
answer_label = "no (0)"

[[record]]
compound = "O=C1Nc2ccc(CCCl)cc2C1=Cc1ccccc1Br"
target_or_test_system = "EGFR (Homo sapiens, UniProt P00533)"
answer_label = "yes (1)"

[[record]]
compound = "O=C1Nc2ccc(I)cc2C1=Cc1ccc(O)cc1O"
target_or_test_system = "EGFR (Homo sapiens, UniProt P00533)"
answer_label = "no (0)"


Check if Biochem EGFR %Inhibition >= 10% (inclusive). Item: Cc1cn(C)cc1C=C1C(=O)Nc2c(Br)cc(Br)cc21 no (0)

Same again, this time with Cc1c(Br)ccc2c1C(=Cc1ccccn1)C(=O)N2 yes (1)

Same again, this time with CNS(=O)(=O)c1ccc2c(c1)C(=Cc1ccc(C(C)(C)C)cc1)C(=O)N2 no (0)

Same again, this time with O=C1Nc2ccc(S(=O)(=O)Nc3ccc(C(F)(F)F)cc3)cc2C1=Cc1cccn1-c1ccc(Cl)cc1 no (0)
